target: HDGF (human, UniProt P51858 1-240); test: PIFQ (Cy3 fluorescence quenching); 10 nM DNA; Hill fit (approximation model 0.031 nM); HDGF assays: 46 mM NaCl, 0.9 mM KCl, 3.3 mM Na2HPO4, 0.66 mM KH2PO4, pH 7.4; at least 1 h on ice; 1-10 nM Cy3 DNA, 10 pM-100 nM protein; RecA dsDNA control at pH 7.5; conditions: protein: recombinant; label: 5' Cy3
Sequence (P51858 whole entry): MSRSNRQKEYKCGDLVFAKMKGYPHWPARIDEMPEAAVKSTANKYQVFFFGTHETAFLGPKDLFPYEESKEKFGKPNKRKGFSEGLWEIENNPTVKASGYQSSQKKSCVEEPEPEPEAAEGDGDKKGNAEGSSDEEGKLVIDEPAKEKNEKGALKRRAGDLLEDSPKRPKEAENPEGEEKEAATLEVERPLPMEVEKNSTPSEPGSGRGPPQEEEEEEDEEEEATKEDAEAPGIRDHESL
quantity-kind: pKd
pKd is a log-scale quantity: -log10 of the concentration expressed in molar.

Lookup result for 15 bp SMYD1 dsDNA (5' Cy3) (dsDNA) DNA 1: TTCAAGACCAGCCTG DNA 2: CAGGCTGGTCTTGAA ; measured pKd: 10.12
